Tested on: 786-0 renal
MEASUREMENT NOTES: NCI-60 one-dose screen, 48 h (100 = growth as untreated, 0 = no growth, -100 = all killed)
PROTOCOL CONDITIONS: 10 µM unless noted
The panel holds about 83,000 compounds, 20% with a hit somewhere; the sample as a whole holds those more often.
Please go through the items and note down their growth.
Kindly answer with a numeric value in %, unit omitted.

Query: I'm curious: which growth was measured for Cn1cc(-c2csc(-c3cn(CCN)c4ccccc34)n2)c2cccnc21 tested on 786-0 renal?
Reply: 46.7

Query: What do you get for CCN1CCN(C(=O)[C@]23CCC(C)(C)C[C@@H]2C2=CC[C@@H]4[C@@]5(C)C/C(=C/c6cccnc6)C(=O)C(C)(C)[C@@H]5CC[C@@]4(C)[C@]2(C)CC3)CC1 ?
Reply: 50.2

Query: What do you get for Cn1cc(-c2csc(-c3c[nH]c4ccc(F)cc34)n2)c2cccnc21 ?
Reply: 66.6

Query: What do you get for Oc1ccccc1/C=N\NC(=S)Nc1ccc(F)cc1 ?
Reply: 16.6

Query: What do you get for COc1cc2[nH]c(C(=O)c3cc(OC)c(OC)c(OC)c3)c(N)c2cc1C#CC1CC1 ?
Reply: 38.7

Query: What do you get for Cn1cc(-c2csc(-c3cn(CCN)c4ccc(Br)cc34)n2)c2cccnc21 ?
Reply: 73.1

Query: What do you get for COc1cc(-c2cc(-c3nc4ccccc4[nH]3)[nH]n2)cc(OC)c1OC ?
Reply: 57.6

Query: What do you get for C=C(C)[C@@H]1CC[C@]2(c3nnc(-c4ccncc4)o3)CC[C@]3(C)[C@H](CC[C@@H]4[C@@]5(C)CCC(=O)NC(C)(C)[C@@H]5CC[C@]43C)[C@@H]12 ?
Reply: 96.2

Query: What do you get for CCCNc1nc(N(C)O)nc(N(C)O)n1 ?
Reply: 7.79

Query: What do you get for CC[C@H](CC[C@@H](C)[C@H]1CC[C@H]2[C@@H]3/C(=C/c4cccnc4)C(=O)C4=CC(=O)CC[C@]4(C)[C@H]3CC[C@]12C)C(C)C ?
Reply: 105

Query: What do you get for O=c1c2sc3ncc(Br)cc3c2ncn1-c1cccc(Cl)c1 ?
Reply: 89

Query: What do you get for O=C(N/N=C\c1c(O)ccc2ccccc12)C1CC1 ?
Reply: 49.6

Query: What do you get for COc1c(N)c2c(c([N+](=O)[O-])c1OC)C(=O)OC2 ?
Reply: 102

Query: What do you get for CC(=O)NC1=C(C#N)C(c2ccccc2Cl)c2c(ccc3ccccc23)O1 (stereo not drawn) ?
Reply: 82.7

Query: What do you get for O=C(NO)c1ccc(Cn2c(=O)n(-c3ccccc3)c(=O)c3ccccc32)cc1 ?
Reply: 71

Query: What do you get for Clc1ccccc1-c1nc(Nc2nc3ccccc3s2)nc(C(Cl)(Cl)Cl)n1 ?
Reply: 75.8

Query: What do you get for C=C(C)[C@@H]1CC[C@]2(C(=O)N3CCN(C)CC3)CC[C@]3(C)[C@H](CC[C@@H]4[C@@]5(C)C/C(=C/c6ccc(C(F)(F)F)cc6)C(=O)C(C)(C)[C@@H]5CC[C@]43C)[C@@H]12 ?
Reply: 90.3

Query: What do you get for C[C@@H]1CCCCCCCCC[C@H](O)C(=O)C[C@@H](SC[C@@H](O)C(=O)O)C(=O)O1 ?
Reply: 85.7
